Source: patent US8026218B2

- target.or.test.system: rat μ opioid receptors (rMOR) (Rattus norvegicus, UniProt P33535)
- Construct: expressed in transfected cells; host or cells: HN9.10 neuroblastoma cell line, pCDNA3, neomycin-selected clones
- Sequence (P33535 whole entry): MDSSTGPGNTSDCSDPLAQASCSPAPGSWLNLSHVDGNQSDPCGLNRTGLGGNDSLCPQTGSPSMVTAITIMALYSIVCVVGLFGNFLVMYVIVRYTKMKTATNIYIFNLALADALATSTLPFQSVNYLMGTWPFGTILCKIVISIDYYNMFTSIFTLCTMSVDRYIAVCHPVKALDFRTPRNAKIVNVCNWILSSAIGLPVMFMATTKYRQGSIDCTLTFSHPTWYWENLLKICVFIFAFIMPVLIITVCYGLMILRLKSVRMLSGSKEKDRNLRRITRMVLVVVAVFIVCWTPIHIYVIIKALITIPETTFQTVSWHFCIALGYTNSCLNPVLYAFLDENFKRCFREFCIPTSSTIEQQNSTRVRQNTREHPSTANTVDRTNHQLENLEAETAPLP
- assay.name: Radioligand competition binding, [3H]DAMGO, rMOR membranes
pKi: −log10 of the molar value. Square brackets hold non-standard residues; d marks the D form. Peptide text beside a SMILES is read from it. * marks the point of attachment. NH(3,5-(CF3)2-benzyl) = FC(F)(F)c1cc(CN*)cc(C(F)(F)F)c1; X1 = OC[C@H]1OC(*)[C@H](O)[C@@H](O)[C@@H]1O; Dmt = Cc1cc(O)cc(C)c1C[C@H](N)C(=O)O; Nle = CCCC[C@H](N)C(=O)O
Quick rule: pKi of at least 8 means criterion met, below that means criterion not met.

The following molecules have reported results that may help.
molecule	assigned.category
CC(C)C[C@H](NC(=O)[C@H](Cc1ccccc1)NC(=O)CNC(=O)[C@@H](C)NC(=O)[C@@H](N)Cc1ccc(O)cc1)C(=O)N[C@@H](Cc1c[nH]c2ccccc12)C(=O)OCc1cc(C(F)(F)F)cc(C(F)(F)F)c1 [NP37] (HELM PEPTIDE1{Y.[dA].G.F.L.W.[FC(F)(F)c1cc(CO[*:1])cc(C(F)(F)F)c1]}$$$$V2.0; N-terminus assumed)	criterion not met
CCCC[C@@H]1NC(=O)[C@H](Cc2ccccc2)NC(=O)CNC(=O)[C@H](NC(=O)[C@@H](N)Cc2ccc(O)cc2)C(C)(C)SSC(C)(C)[C@@H](C(=O)N[C@@H](Cc2c[nH]c3ccccc23)C(=O)NCc2cc(C(F)(F)F)cc(C(F)(F)F)c2)NC(=O)[C@@H]2CCCN2C1=O [TY047] (HELM PEPTIDE1{Y.[CC(C)(S[*:3])[C@@H](N[*:1])C(=O)[*:2]].G.F.[Nle].P.[Pen].W.[FC(F)(F)c1cc(CN[*:1])cc(C(F)(F)F)c1]}$PEPTIDE1,PEPTIDE1,2:R3-7:R3$$$V2.0; N-terminus assumed)	criterion not met

Query: Please tell me: is the molecule CCCC[C@H](NC(=O)[C@H](Cc1ccccc1)NC(=O)CNC(=O)[C@@H](C)NC(=O)[C@@H](N)Cc1c(C)cc(O)cc1C)C(=O)N1CCC[C@H]1C(=O)N[C@@H](COC1O[C@H](CO)[C@@H](O)[C@H](O)[C@H]1O)C(=O)N[C@@H](Cc1c[nH]c2ccccc12)C(=O)NCc1cc(C(F)(F)F)cc(C(F)(F)F)c1 (stereo partly drawn) [TY056] (H-[Dmt][dA]GF[Nle]PS(X1)W-{NH(3,5-(CF3)2-benzyl)}; N-terminus assumed) at or over 8 in terms of pKi?
Response: criterion met

Query: Please tell me: is the molecule CCCC[C@H](NC(=O)[C@H](Cc1ccccc1)NC(=O)CNC(=O)[C@@H](C)NC(=O)[C@@H](N)Cc1ccc(O)cc1)C(=O)N1CCC[C@H]1C(=O)N[C@@H](CC(C)C)C(=O)N[C@@H](COC1O[C@H](CO)[C@@H](O)[C@H](O)[C@H]1O)C(=O)N[C@@H](Cc1c[nH]c2ccccc12)C(=O)NCc1cc(C(F)(F)F)cc(C(F)(F)F)c1 (stereo partly drawn) at or over 8 in terms of pKi?
Response: criterion not met

Query: Please tell me: is the molecule CCCC[C@H](NC(=O)[C@H](Cc1ccccc1)NC(=O)CNC(=O)[C@@H](C)NC(=O)[C@@H](N)Cc1ccc(O)cc1)C(=O)N[C@@H](COC1O[C@H](CO)[C@@H](O)[C@H](O)[C@H]1O)C(=O)N[C@@H](CC(C)C)C(=O)N[C@@H](Cc1c[nH]c2ccccc12)C(=O)NCc1cc(C(F)(F)F)cc(C(F)(F)F)c1 (stereo partly drawn) at or over 8 in terms of pKi?
Response: criterion not met

Query: Please tell me: is the molecule "CSCC[C@H](NC(=O)[C@H](Cc1ccccc1)NC(=O)CNC(=O)[C@@H](C)NC(=O)[C@@H](N)Cc1c(C)cc(O)cc1C)C(=O)N1CCC[C@H]1C(=O)N[C@@H](CC(C)C)C(=O)N[C@@H](Cc1c[nH]c2ccccc12)C(=O)OCc1cc(C(F)(F)F)cc(C(F)(F)F)c1" at or over 8 in terms of pKi?
Response: criterion met

---

- target.or.test.system: rat μ opioid receptors (rMOR) (Rattus norvegicus, UniProt P33535)
- Construct: expressed in transfected cells; host or cells: HN9.10 neuroblastoma cell line, pCDNA3, neomycin-selected clones
- assay.name: biochemical
- Format: biochemical
- details: Table 32; read-out: GTP rMOR EMax
Peptide text beside a SMILES is read from it.
parameter: Emax
Report the figure along with its unit, number first.

molecule	Emax
CC(C)C[C@H](NC(=O)[C@H](Cc1ccccc1)NC(=O)CNC(=O)[C@@H](C)NC(=O)[C@@H](N)Cc1ccc(O)cc1)C(=O)N[C@@H](Cc1c[nH]c2ccccc12)C(=O)OCc1cc(C(F)(F)F)cc(C(F)(F)F)c1 [NP37] (HELM PEPTIDE1{Y.[dA].G.F.L.W.[FC(F)(F)c1cc(CO[*:1])cc(C(F)(F)F)c1]}$$$$V2.0; N-terminus assumed)	54%

Query: Which value of Emax has been reported for C[C@H](NC(=O)[C@H](Cc1ccccc1)NC(=O)CNC(=O)[C@@H](C)NC(=O)[C@@H](N)Cc1ccc(O)cc1)C(=O)N[C@@H](Cc1c[nH]c2ccccc12)C(=O)OCc1cc(C(F)(F)F)cc(C(F)(F)F)c1 [NP31] (HELM PEPTIDE1{Y.[dA].G.F.A.W.[FC(F)(F)c1cc(CO[*:1])cc(C(F)(F)F)c1]}$$$$V2.0; N-terminus assumed) in the records?
Response: 50%

Query: Which value of Emax has been reported for CSCC[C@H](NC(=O)[C@H](Cc1ccccc1)NC(=O)CNC(=O)[C@@H](C)NC(=O)[C@@H](N)Cc1ccc(O)cc1)C(=O)N[C@@H](Cc1c[nH]c2ccccc12)C(=O)OCc1cc(C(F)(F)F)cc(C(F)(F)F)c1 [NP38] (HELM PEPTIDE1{Y.[dA].G.F.M.W.[FC(F)(F)c1cc(CO[*:1])cc(C(F)(F)F)c1]}$$$$V2.0; N-terminus assumed) in the records?
Response: 51%

Query: Which value of Emax has been reported for C[C@@H](NC(=O)[C@@H](N)Cc1ccc(O)cc1)C(=O)NCC(=O)N[C@@H](Cc1ccccc1)C(=O)NC(C)(C)C(=O)N[C@@H](Cc1c[nH]c2ccccc12)C(=O)OCc1cc(C(F)(F)F)cc(C(F)(F)F)c1 [NP41] (HELM PEPTIDE1{Y.[dA].G.F.[Aib].W.[FC(F)(F)c1cc(CO[*:1])cc(C(F)(F)F)c1]}$$$$V2.0; N-terminus assumed) in the records?
Response: 36%

Query: Which value of Emax has been reported for C[C@@H](NC(=O)[C@@H](N)Cc1ccc(O)cc1)C(=O)NCC(=O)N[C@@H](Cc1ccccc1)C(=O)NCCCC(=O)N[C@@H](Cc1c[nH]c2ccccc12)C(=O)OCc1cc(C(F)(F)F)cc(C(F)(F)F)c1 [NP34] (HELM PEPTIDE1{Y.[dA].G.F.[O=C(CCCN[*:1])[*:2]].W.[FC(F)(F)c1cc(CO[*:1])cc(C(F)(F)F)c1]}$$$$V2.0; N-terminus assumed) in the records?
Response: 27%

---

- target.or.test.system: rat μ opioid receptors (rMOR) (Rattus norvegicus, UniProt P33535)
- Construct: expressed in transfected cells; host or cells: HN9.10 neuroblastoma cell line, pCDNA3, neomycin-selected clones
- assay.name: Radioligand competition binding, [3H]DAMGO, rMOR membranes
- details: membranes from transfected HN9.10 cells
Peptide text beside a SMILES is read from it.
Documented LogIC50, rMOR, [3H]DAMGO across a set of compounds
Quick one: just the number, no unit, thanks!

compound	LogIC50, rMOR, [3H]DAMGO
CC(C)C[C@H](NC(=O)[C@@H]1CCCN1C(=O)[C@H](CC(C)C)NC(=O)[C@H](Cc1ccccc1)NC(=O)CNC(=O)[C@@H](C)NC(=O)[C@@H](N)Cc1ccc(O)cc1)C(=O)N[C@@H](Cc1c[nH]c2ccccc12)C(=O)OCc1cc(C(F)(F)F)cc(C(F)(F)F)c1	−7.30

Query: Which value of LogIC50, rMOR, [3H]DAMGO has been reported for CC(C)C[C@H](NC(=O)[C@@H]1CCCN1C(=O)CNC(=O)[C@H](Cc1ccccc1)NC(=O)CNC(=O)[C@@H](C)NC(=O)[C@@H](N)Cc1ccc(O)cc1)C(=O)N[C@@H](Cc1c[nH]c2ccccc12)C(=O)OCc1cc(C(F)(F)F)cc(C(F)(F)F)c1 [TY006] (HELM PEPTIDE1{Y.[dA].G.F.G.P.L.W.[FC(F)(F)c1cc(CO[*:1])cc(C(F)(F)F)c1]}$$$$V2.0) in the records?
Response: −7.24

Query: Which value of LogIC50, rMOR, [3H]DAMGO has been reported for "CC(C)C[C@H](NC(=O)[C@@H]1CCCN1C(=O)[C@H](Cc1ccccc1)NC(=O)[C@H](Cc1ccccc1)NC(=O)CNC(=O)[C@@H](C)NC(=O)[C@@H](N)Cc1ccc(O)cc1)C(=O)N[C@@H](Cc1c[nH]c2ccccc12)C(=O)OCc1cc(C(F)(F)F)cc(C(F)(F)F)c1" in the records?
Response: −7.22

Query: Which value of LogIC50, rMOR, [3H]DAMGO has been reported for "CC(C)C[C@H](NC(=O)[C@@H]1CCCN1C(=O)[C@@H](Cc1ccccc1)NC(=O)[C@H](Cc1ccccc1)NC(=O)CNC(=O)[C@@H](C)NC(=O)[C@@H](N)Cc1ccc(O)cc1)C(=O)N[C@@H](Cc1c[nH]c2ccccc12)C(=O)OCc1cc(C(F)(F)F)cc(C(F)(F)F)c1" in the records?
Response: −6.09
